Biological target: ATP-dependent translocase ABCB1 (Homo sapiens) (UniProt P08183)
Sequence (P08183 whole entry, looked up): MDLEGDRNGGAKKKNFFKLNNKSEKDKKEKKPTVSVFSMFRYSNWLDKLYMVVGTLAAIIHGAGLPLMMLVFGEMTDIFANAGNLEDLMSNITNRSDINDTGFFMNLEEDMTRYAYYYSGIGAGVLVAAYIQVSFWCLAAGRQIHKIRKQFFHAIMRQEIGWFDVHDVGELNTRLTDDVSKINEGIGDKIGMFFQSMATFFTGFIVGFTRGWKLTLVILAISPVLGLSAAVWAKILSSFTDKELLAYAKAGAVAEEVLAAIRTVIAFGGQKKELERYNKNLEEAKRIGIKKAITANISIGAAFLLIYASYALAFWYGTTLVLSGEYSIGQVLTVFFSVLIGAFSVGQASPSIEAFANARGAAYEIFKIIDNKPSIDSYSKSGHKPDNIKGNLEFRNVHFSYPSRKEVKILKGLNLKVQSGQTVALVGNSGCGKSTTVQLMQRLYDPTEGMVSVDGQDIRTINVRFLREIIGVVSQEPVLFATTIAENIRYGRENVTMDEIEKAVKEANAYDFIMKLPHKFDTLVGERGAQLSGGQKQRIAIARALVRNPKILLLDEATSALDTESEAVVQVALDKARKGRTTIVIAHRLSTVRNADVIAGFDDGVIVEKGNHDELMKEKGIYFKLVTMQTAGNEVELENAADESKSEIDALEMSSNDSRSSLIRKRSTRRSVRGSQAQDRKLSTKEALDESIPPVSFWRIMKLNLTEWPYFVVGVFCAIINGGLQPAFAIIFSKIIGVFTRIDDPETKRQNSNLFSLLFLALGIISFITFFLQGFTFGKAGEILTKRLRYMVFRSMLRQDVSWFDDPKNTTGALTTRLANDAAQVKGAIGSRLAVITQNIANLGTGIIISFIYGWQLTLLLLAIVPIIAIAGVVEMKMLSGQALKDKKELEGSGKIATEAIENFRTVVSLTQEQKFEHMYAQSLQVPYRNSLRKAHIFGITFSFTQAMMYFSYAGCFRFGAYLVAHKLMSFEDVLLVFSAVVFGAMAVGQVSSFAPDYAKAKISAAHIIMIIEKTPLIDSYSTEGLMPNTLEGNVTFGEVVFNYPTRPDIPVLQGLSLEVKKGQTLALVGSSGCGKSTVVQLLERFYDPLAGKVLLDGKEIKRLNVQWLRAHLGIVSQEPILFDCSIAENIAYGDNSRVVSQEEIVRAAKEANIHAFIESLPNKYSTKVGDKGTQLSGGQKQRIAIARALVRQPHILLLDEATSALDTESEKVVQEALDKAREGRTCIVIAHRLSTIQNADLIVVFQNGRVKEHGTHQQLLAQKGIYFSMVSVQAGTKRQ
Test: MDR1 (ABCB1) efflux transporter inhibition, cell-based (AID 377)
Conditions: MDR1-expressing cells, fluorescent substrate accumulation slope; stronger effect = higher value; concentration not given here
Records with an inconclusive call do not appear.
Each entry gets false (0) if its fluorescence slope change stays under 70%, and true (1) if its fluorescence slope change is 70% or above.

Examples from the recorded data:
{"columns": ["compound", "answer label"],
 "data": [
  ["CCN(CC)CCc1nc(-c2ccccc2)no1", "false (0)"],
  ["C[C@H](NCCc1ccc(O)cc1)[C@H](O)c1ccc(O)cc1", "false (0)"]
]}

Task item: In plain terms: is recorded fluorescence slope change at least 70% for C[C@]12CCC(=O)C=C1CC[C@H]1[C@@H]3CC[C@](O)(C(=O)CO)[C@@]3(C)C[C@H](O)[C@@]12F ?
Reply: false (0)

Task item: In plain terms: is recorded fluorescence slope change at least 70% for CN(C)C/C=C(/c1ccc(Br)cc1)c1cccnc1 ?
Reply: true (1)
